// values below are reported melting point

>  <compound-string>
COc1cccc(CCc2c(CCNC(=O)CCCCC(=O)NCCc3ccc(NS(C)(=O)=O)cc3)ccc(OC)c2OC)c1

>  <measurement>
157 to 159 °C

$$$$
>  <compound-string>
C[C@H](CCC[C@@H](C)[C@H]1C(=O)C[C@H]2[C@@H]3CC=C4C[C@@H](O)CC[C@]4(C)[C@H]3CC[C@]12C)CN1C(=O)c2ccccc2C1=O

>  <measurement>
55 °C

$$$$
>  <compound-string>
COc1ccc(C(=CNC(=O)c2sc3ccc(C(F)(F)F)cc3c2O)c2ccc(OC)cc2)cc1

>  <measurement>
178 to 183 °C

$$$$

Turning now to a further molecule:
Given the molecule O=C(O)c1ccccc1Nc1ccc(Cl)cc1[N+](=O)[O-] , what is its reported melting point?
235 to 247 °C

====

experimental-readout: melting point

>  <molecule>
COC(=O)c1ncc(O)c2c1[nH]c1ccccc12

>  <melting point>
241 to 242 °C

$$$$
>  <molecule>
OC1CCCCCC/C1=C\Br (centres undefined)

>  <melting point>
144 to 145 °C

$$$$
>  <molecule>
Cc1c(OCC(=O)O)cc2c(c1Cl)C(=O)C1(CCCC1)C2=O

>  <melting point>
204 to 205 °C

$$$$
>  <molecule>
CC(C)c1ccc2c(c1)C=C(C(=O)O)CC2

>  <melting point>
160 to 162 °C

$$$$
>  <molecule>
C=CCOc1cc(C(=O)O)cc(S(C)(=O)=O)c1OCC=C

>  <melting point>
163 °C

$$$$
>  <molecule>
O=C(Cc1ccc(Cl)cc1)c1cccs1

>  <melting point>
98 to 99 °C

$$$$
>  <molecule>
CN(C)C(=O)c1csc(N(C)CC#CI)n1

>  <melting point>
148 to 150 °C

$$$$
>  <molecule>
CC(C)(C)NS(=O)(=O)c1c(Cl)cccc1-c1ccccc1

>  <melting point>
168 to 170 °C

$$$$
>  <molecule>
CCCCN(CCCC)c1ccc2nc3c4ccccc4c(=Nc4ccncc4)cc-3oc2c1

>  <melting point>
188 to 189 °C

$$$$
>  <molecule>
CC(C)(C)OC(=O)C[C@H](NC(=O)c1ccc(CCC(=O)NC2=NCCCN2)s1)c1ccc2c(c1)OCO2

>  <melting point>
130 °C

$$$$

Please report the recorded melting point for CCOC(=NC(=O)c1ccco1)N1Cc2ccccc2-c2ccccc2C1 .
87 to 92 °C

Using the record for CC1=C(c2ccccc2)C(=O)N(C(C)(C)C(O)c2cc(F)cc(F)c2)CO1 (centres undefined) , report its melting point.
87.6 to 89 °C

====

Consider the following molecules and their measured melting point readings.

>  <molecule>
CC1(C)CN(C(=N)NC=C(C#N)C(=O)N(CC2CC2)c2cccc(C(F)(F)F)c2)C(=O)N1

>  <melting point>
121 to 122 °C

$$$$
>  <molecule>
CCC(c1ccncc1)N1CCCNS1(=O)=O (stereo not given)

>  <melting point>
90 to 105 °C

$$$$
>  <molecule>
O=C(O)c1ccc(OCCNC(=O)C2Cc3ccccc3N2S(=O)(=O)c2ccc(-c3ccc(F)cc3Cl)cc2)cc1 (stereo not given)

>  <melting point>
90 °C

$$$$
>  <molecule>
C#CCN1C(=O)COc2ccc(C3CC(=O)C(C(CC)=NOCC)=C(O)C3)cc21 (stereo not given)

>  <melting point>
100 to 102 °C

$$$$
>  <molecule>
O=C1CC(c2ccccc2)c2ccccc2CN1 (stereo not given)

>  <melting point>
180 to 181 °C

$$$$

// returns reported melting point for input CCCNC(=O)NC1Cc2ccc(C3=NNC(=O)CC3)cc2C1 (stereo not given)
214 to 216 °C

Sample COC(=O)c1ccc(C(N)=O)cc1Cl — what was its melting point?
154 to 156 °C

Entry Cc1ccc(S(=O)(=O)N2CC(CO)(CO)C2)cc1 : reported melting point = ?
148 to 150 °C

Dear colleague, I am looking for the recorded melting point of the following molecule: O=C1c2ccccc2-c2ccncc21
152 to 153 °C

# query: melting point of entry COc1ccc(N2CCN(c3ccc(Nc4nnc(C)s4)cc3)CC2)cc1
277 °C

melting point lookup needed for CCCn1c(=O)n2c(=O)n(COCc3ccccc3)nc2c2c1ncn2COCc1ccccc1 , thanks.
88.9 to 90.3 °C

GET /values?readout=melting point&item= c1ccc2c(c1)c1c(N3CCCC3)nc(N3CCCC3)nc1n2CCn1ccnc1
181 to 183 °C

Using the record for CC(C)(C)OC(=O)N1CCCN(c2cc[nH]c(=S)c2C#N)CC1 , report its melting point.
203 to 205 °C

Value lookup for melting point; key = CC(=O)c1ccc(Nc2cccc(-c3ccccn3)c2)c([N+](=O)[O-])c1
195 to 196 °C

Bench note: what melting point did c1ccc(OCc2ccc3ccccc3n2)c(OCCCc2nnn[nH]2)c1 show?
137 to 140 °C

====

experimental-readout: melting point

Completed entries (count: 5):
>  <compound>
COC(=O)c1nn(C2CCCCO2)cc1NC(=O)c1ccc(C)nc1 (centres undefined)

>  <melting point>
142 to 143 °C

$$$$
>  <compound>
COC(=O)Cc1cc([N+](=O)[O-])c(OC)c2c1N(C(C)=O)CC2

>  <melting point>
181 to 182 °C

$$$$
>  <compound>
CCC(CC)c1ccc(Cl)c2nc3n(c12)CCCCN3c1ccc(S(C)=O)cc1C (centres undefined)

>  <melting point>
189 to 190 °C

$$$$
>  <compound>
O=C(O)COc1cccc2c1Cc1sc(SCC(c3ccccc3)c3ccccc3)nc1-2

>  <melting point>
207 to 210 °C

$$$$
>  <compound>
Clc1ccc(Cl)c(Oc2cccc(Cl)n2)c1

>  <melting point>
82 to 84 °C

$$$$

melting point for CC(=O)Oc1ccccc1C(=O)NC(O)C(Cl)(Cl)Cl (centres undefined) ?
124 to 126 °C

Requested field: melting point. Item: CC(O)(CSc1ccc(F)cc1)C(=O)O (centres undefined)
73 to 75 °C

Look at this compound and give its reported melting point. CC(=O)N1CCC(C(=O)Nc2ccccc2Oc2ccc(Cl)cc2)CC1
195 to 196 °C

Data request, read-out melting point, for COc1ccc2nc(C(F)(F)F)c(C(=O)O)c(O)c2c1
256 °C

====

This listing pairs compounds with measured melting point.

Examples from the recorded data:
>  <compound>
CS(=O)(=O)c1ccc(S(=O)(=O)N2CCCC(c3ccc(Cl)c(Cl)c3)=N2)cc1

>  <experimental-readout>
melting point

>  <measurement>
181 to 183 °C

$$$$
>  <compound>
C=C(Cc1ccccc1C)C(=O)O

>  <experimental-readout>
melting point

>  <measurement>
82 to 83 °C

$$$$

Find the recorded melting point belonging to CCC(Oc1cc(C)ccc1C)C(=O)OC1CC(O)C=C2C=CC(C)C(CCC3CC(O)CC(=O)O3)C21 (mixture of isomers) and report it.
138 to 140 °C

// returns reported melting point for input CCOC(=O)N1CCN(c2c(-c3ccccc3)sc3ccccc23)CC1
115 to 116 °C

====

experimental-readout: melting point

Worked examples follow.
>  <compound>
COc1cc(N)c(Cl)cc1C(=O)NCC1CCN(CCCCCCNC(=O)c2ccccc2)CC1

>  <melting point>
159 to 162 °C

$$$$
>  <compound>
O=C1Nc2cc(F)ccc2N2CCN(Cc3ccncc3)CC12 (stereo unspecified)

>  <melting point>
269 to 272 °C

$$$$
>  <compound>
CNC(=O)CC(C)(C)c1ccc(C(=O)Nc2cn3cc(Cl)ccc3n2)cc1

>  <melting point>
228 to 230 °C

$$$$
>  <compound>
CC(C)c1nc2c(c3c1[nH]c1ccccc13)C(=O)C(C)(C)CC2

>  <melting point>
182 to 184 °C

$$$$
>  <compound>
COC(=O)[C@H](Cc1ccc(NC(=O)c2c(Cl)cccc2Cl)cc1)NC(=S)C1(CCCCS(C)(=O)=O)CCCC1

>  <melting point>
200 to 202 °C

$$$$

Entry CC(c1oc2ccc(F)cc2c(=O)c1-c1ccccc1F)n1cnc2c(N)ncnc21 (stereo unspecified) has what melting point?
245 to 248 °C

====

Below: a set of entries, each annotated with reported melting point.

Some entries whose results are on file:
>  <compound>
CC(C)(C)OC(=O)NC1C=CCC2C(=O)NC(=O)C12 (stereo not given)

>  <melting point>
158 to 160 °C

$$$$
>  <compound>
CP(=O)(O)C(CCc1ccccc1)NC(=O)C(F)(F)F (stereo not given)

>  <melting point>
138 to 145 °C

$$$$
>  <compound>
CC(C(=O)O)c1cccc(N)c1 (stereo not given)

>  <melting point>
98 to 100 °C

$$$$
>  <compound>
Cc1cc2ccccc2c(Cl)c1C

>  <melting point>
55 °C

$$$$
>  <compound>
CCN(CC)CCNC(=O)c1cccc2nc3cc(I)ccc3nc12

>  <melting point>
140 to 142 °C

$$$$

// returns reported melting point for input Cc1ccc(S(=O)(=O)OCCN(c2ccc(OC(F)(F)F)cc2)S(=O)(=O)c2ccc(C)cc2)cc1
88 °C

Need melting point of COCc1c(C(=O)OCCO)ncc2[nH]c3ccc(OCc4ccccc4)cc3c12 , thanks.
165 to 167 °C

Find the recorded melting point belonging to CCCCCCCCCCCCCCCCCCNS(N)(=O)=O and report it.
105 to 107 °C

What does the data say about its melting point? Entry: CC(=O)N1CC2OC(C3OCCO3)(C1)c1ccccc12 (stereo not given)
122 to 123 °C

Request the reported melting point associated with COc1ccc(NC(=O)c2ccc([N+](=O)[O-])cc2N)cc1
193 to 197 °C

Quick check: melting point of C=CCOCc1csc2c(=O)c(C(=O)NCc3ccc(Cl)cc3)cn(C)c12 ?
156 to 158 °C

# input compound: CCOP(=O)(CCN1CCC(N(C)S(=O)(=O)c2ccc(Nc3nccc(Nc4ccc(F)c(F)c4)n3)cc2)CC1)OCC ; wanted: its melting point
93 to 96 °C

Look at this compound and give its reported melting point. Cc1ccnc(N2CCN(C3Sc4ccccc4NC3=O)CC2)c1 (stereo not given)
245 °C

Bench note: what melting point did Cn1nc(-c2ccc(S(C)(=O)=O)cc2)c(-c2ccc(F)cc2)c1C(F)(F)F show?
166 to 169 °C

Any idea what its melting point is? The compound is CCOC(=O)c1cccc(C2COc3cc(O)c(O)cc3C2)c1 (stereo not given)
131 to 133 °C
